# Test system: SF-268 (CNS cancer)
# Procedure Summary: NCI-60 screen (SRB, 48 h)
# Measurement Context: Homo sapiens, SF-268
// NB: equality with 2000 nM counts as No; only GI50 strictly below is Yes

Cc1ccc(S(=O)(=O)OC[C@]23CCC(C)(C)C[C@H]2C2=CC[C@@H]4[C@@]5(C)CCCNC(C)(C)[C@@H]5CC[C@@]4(C)[C@]2(C)CC3)cc1; No
C=C(C)[C@@H]1CC[C@]2(COS(=O)(=O)c3ccc(C)cc3)CC[C@]3(C)[C@@H](CC[C@@H]4[C@@]5(C)CCCNC(C)(C)[C@@H]5CC[C@]43C)[C@@H]12; Yes
C[C@H]1[C@H](C)CC[C@]2(C(=O)Nc3ccc4ncccc4c3)CC[C@]3(C)C(=CC[C@@H]4[C@@]5(C)CCCNC(C)(C)[C@@H]5CC[C@]43C)[C@H]12; Yes
CC1(C)NCCC[C@]2(C)[C@H]3C=CC4=C5C[C@@](C)(CO)CC[C@]5(C)CC[C@@]4(C)[C@]3(C)CC[C@@H]12; No
C=C(C)[C@@H]1CC[C@]2(C)[C@H](CC=C3[C@@H]4[C@@H](C)[C@H](C)CC[C@]4(CO)CC[C@]32C)[C@@]1(C)CCCN; Yes

###

The reader will find GI50 measurements below, all made with M14 (Melanoma).
Outcome Measure: GI50

Cc1ccc(S(=O)(=O)OC[C@]23CCC(C)(C)C[C@H]2C2=CC[C@@H]4[C@@]5(C)CCCNC(C)(C)[C@@H]5CC[C@@]4(C)[C@]2(C)CC3)cc1; 1870 nM
C=C(C)[C@@H]1CC[C@]2(C(=O)N[C@H](CO)Cc3ccccc3)CC[C@]3(C)[C@H](CC[C@@H]4[C@@]5(C)CCCNC(C)(C)[C@@H]5CC[C@]43C)[C@@H]12; 740 nM
CC1(C)CC[C@]23CC[C@]4(C)[C@H](CC[C@@H]5[C@@]6(C)CCCNC(C)(C)[C@@H]6CC[C@]54C)[C@H]2[C@H]1OC3; 1770 nM
C=C(C)[C@@H]1CCC=C2CC[C@]3(C)[C@H](CC[C@@H]4[C@@]5(C)CCCNC(C)(C)[C@@H]5CC[C@]43C)[C@H]21; 1890 nM
CC(C)=C1CCC=C2CC[C@]3(C)[C@H](CC[C@@H]4[C@@]5(C)CCCNC(C)(C)[C@@H]5CC[C@]43C)[C@H]21; 1730 nM
CC1(C)CC[C@]2(CO)CC[C@]3(C)C(=CC[C@@H]4[C@@]5(C)CCCNC(C)(C)[C@@H]5CC[C@]43C)[C@@H]2C1; 2040 nM

###

# Test system: UACC-62 (Melanoma)
Outcome Measure: GI50 (µM)

C=C(C)[C@@H]1CC[C@]2(C)[C@H](C=CC3=C4C[C@@](C)(CO)CC[C@]4(C)CC[C@]32C)[C@@]1(C)CCCN; 1.78
CC1(C)CC[C@]23CC[C@]4(C)[C@H](CC[C@@H]5[C@@]6(C)CCCNC(C)(C)[C@@H]6CC[C@]54C)[C@H]2[C@H]1OC3; 1.79
Cc1ccc(S(=O)(=O)OC[C@]23CCC(C)(C)C[C@H]2C2=CC[C@@H]4[C@@]5(C)CCCNC(C)(C)[C@@H]5CC[C@@]4(C)[C@]2(C)CC3)cc1; 1.68

Origin of the recorded values: paper PMC7914897
